# Assay notes: In vitro stability in rat plasma (HPLC detection)
# Assay type: in vitro ADME
# Measurement context: 37° C.
# Procedure: 1 mg of test compound is dissolved in 1.25 ml dimethylsulfoxide. Then 1.25 ml water are added. 0.5 ml of this sample solution are mixed with 0.5 ml heparinized and 37° C. warm plasma (wistar rat plasma or human plasma). A first sample (10 μl) is immediately taken for HPLC analysis. In the period up to 4 h after the start of incubation further 10 μl aliquots are taken after 30, 60, 90, 120 and 240 minutes and the amount of the test compound is determined. […]
Measured endpoint: % Test Compound after 4 h [F(t = 24 h) × 100/F(t = 0 h)] (%)

{"columns": ["Compound", "Unit spec", "Observed value"],
 "data": [
  ["COc1cc(S(C)(=O)=O)ccc1N(C(=O)OC(OC(=O)[C@@H](N)C(C)C)C(C)C)c1nc2ccc(-c3ccc(NC(=O)[C@H](C)c4ccc(F)cc4)cc3)cn2n1.Cl (mixture of isomers) [Example 5.4]", "%", 44]
]}

A = COc1cc(S(C)(=O)=O)ccc1N(C(=O)OC(OC(=O)C(C)(C)N)C(C)C)c1nc2ccc(-c3ccc(NC(=O)[C@H](C)c4ccc(F)cc4)cc3)cn2n1.Cl (mixture of isomers) [Example 5.5]
B = COc1cc(S(C)(=O)=O)ccc1N(C(=O)OCOC(=O)[C@@H](NC(=O)[C@@H](N)CCCCN)C(C)C)c1nc2ccc(-c3ccc(NC(=O)[C@H](C)c4ccc(F)cc4)cc3)cn2n1.Cl.Cl [Example 2.1]
C = CNCC(=O)N(c1nc2ccc(-c3ccc(NC(=O)[C@H](C)c4ccc(F)cc4)cc3)cn2n1)c1ccc(S(C)(=O)=O)cc1OC.O=C(O)C(F)(F)F [Example 8.1]
D = CN[C@H](C(=O)OCOC(=O)N(c1nc2ccc(-c3ccc(NC(=O)[C@H](C)c4ccc(F)cc4)cc3)cn2n1)c1ccc(S(C)(=O)=O)cc1OC)C(C)C.Cl [Example 1.4]
// query List items by % Test Compound after 4 h [F(t = 24 h) × 100/F(t = 0 h)] in falling order. State the ranking by listing the labels in the requested order.
// result C, A, D, B

====

# Assayed target: human kinase Mps-1 (Homo sapiens, UniProt P33981)
# Construct: N-terminally GST-tagged human full length recombinant Mps-1 kinase; GST (N); purchased Invitrogen, Karslruhe, Germany PV4071
# Sequence (P33981 whole entry): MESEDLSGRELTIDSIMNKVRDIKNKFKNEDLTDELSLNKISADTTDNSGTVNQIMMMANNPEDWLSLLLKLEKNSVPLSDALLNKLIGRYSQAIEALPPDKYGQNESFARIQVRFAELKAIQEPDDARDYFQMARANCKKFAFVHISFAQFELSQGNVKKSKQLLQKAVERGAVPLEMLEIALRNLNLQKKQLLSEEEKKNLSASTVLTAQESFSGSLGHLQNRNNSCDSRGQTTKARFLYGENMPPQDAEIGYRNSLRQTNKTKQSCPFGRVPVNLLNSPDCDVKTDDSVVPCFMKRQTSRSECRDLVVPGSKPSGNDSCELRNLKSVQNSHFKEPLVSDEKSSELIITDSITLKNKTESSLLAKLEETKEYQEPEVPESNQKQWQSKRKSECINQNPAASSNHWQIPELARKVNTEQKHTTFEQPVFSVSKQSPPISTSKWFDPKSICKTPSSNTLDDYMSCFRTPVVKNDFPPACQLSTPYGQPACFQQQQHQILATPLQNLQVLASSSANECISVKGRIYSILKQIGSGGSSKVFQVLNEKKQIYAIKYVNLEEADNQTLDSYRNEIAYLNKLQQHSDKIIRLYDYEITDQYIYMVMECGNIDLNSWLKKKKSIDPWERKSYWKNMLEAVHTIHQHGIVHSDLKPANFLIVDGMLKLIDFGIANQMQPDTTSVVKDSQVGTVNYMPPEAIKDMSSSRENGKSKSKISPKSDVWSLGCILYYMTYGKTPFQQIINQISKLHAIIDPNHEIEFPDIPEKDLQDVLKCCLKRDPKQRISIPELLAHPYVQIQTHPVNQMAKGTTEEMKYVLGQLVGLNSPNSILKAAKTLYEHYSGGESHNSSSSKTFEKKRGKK
# Assay notes: Mps-1 kinase assay (TR-FRET) with 10 μM ATP
# Assay type: biochemical
# Measurement context: IC50 in an Mps-1 kinase assay with a concentration of 10 μM ATP
This section presents compounds with their documented IC50 values.

Recorded IC50, per entry:
{"columns": ["Smiles record", "Assayed target", "IC50"],
 "data": [
  ["C[C@@H](C(=O)Nc1ccc(-c2ccc3nc(Nc4ccc(C(=O)N5CC(F)C5)cc4OCC(F)(F)F)nn3c2)cc1)c1ccc(F)cc1", "human kinase Mps-1 (Homo sapiens, UniProt P33981)", "≤ 1 nM"],
  ["C[C@@H](C(=O)Nc1ccc(-c2ccc3nc(Nc4ccc(S(C)(=O)=O)cc4OCC(F)(F)F)nn3c2)cc1)c1ccc(F)cc1", "human kinase Mps-1 (Homo sapiens, UniProt P33981)", "≤ 1 nM"]
]}

Then this compound:
// query Would you mind telling me what IC50 value was observed for COc1cc(C(=O)N2CCC2)ccc1Nc1nc2ccc(-c3ccc(NC(=O)[C@H](C)c4ccc(F)cc4)cc3)cn2n1 ?
// result ≤ 1 nM

meta.source: patent US9586958B2
